Origin of measurements: patent US20170008955A1

# TEST_SYSTEM: T1, cSNK:BSA conjugate (bovine, head-to-tail cyclized; conjugated to BSA carrier)
# T1 construct: also called BSA-cSNK
# T1 sequence (P02769 25-607 limits assumed): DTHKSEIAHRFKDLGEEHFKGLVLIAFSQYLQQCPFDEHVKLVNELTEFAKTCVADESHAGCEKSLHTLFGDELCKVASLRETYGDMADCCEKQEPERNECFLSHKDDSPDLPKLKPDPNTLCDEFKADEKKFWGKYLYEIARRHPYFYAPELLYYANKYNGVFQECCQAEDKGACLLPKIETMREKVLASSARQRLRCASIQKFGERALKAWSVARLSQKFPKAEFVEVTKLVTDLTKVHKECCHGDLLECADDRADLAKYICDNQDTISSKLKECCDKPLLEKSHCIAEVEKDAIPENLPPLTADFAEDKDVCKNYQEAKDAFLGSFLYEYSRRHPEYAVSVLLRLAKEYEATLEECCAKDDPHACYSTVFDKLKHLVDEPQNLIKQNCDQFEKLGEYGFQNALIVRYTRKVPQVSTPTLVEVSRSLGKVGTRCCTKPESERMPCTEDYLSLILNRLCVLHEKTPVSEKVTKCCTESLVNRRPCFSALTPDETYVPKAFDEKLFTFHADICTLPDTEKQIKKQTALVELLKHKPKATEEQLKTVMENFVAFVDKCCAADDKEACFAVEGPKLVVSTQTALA
# PROTOCOL_NOTES: BLI 2:1 fit, site 1; 25 nM row
ENDPOINT_NAME: kon (M⁻¹ s⁻¹)
The reply should be a number in M⁻¹ s⁻¹, with the unit left off.

// worked examples, kon included
BINDER	kon (M⁻¹ s⁻¹)
hu5E3-IgG2 (antibody, V domains shown, human IgG2/kappa; also called humanized 5E3 IgG2) VH: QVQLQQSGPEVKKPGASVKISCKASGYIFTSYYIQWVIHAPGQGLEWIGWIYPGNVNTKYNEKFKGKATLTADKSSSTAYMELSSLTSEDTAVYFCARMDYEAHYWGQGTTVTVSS VL: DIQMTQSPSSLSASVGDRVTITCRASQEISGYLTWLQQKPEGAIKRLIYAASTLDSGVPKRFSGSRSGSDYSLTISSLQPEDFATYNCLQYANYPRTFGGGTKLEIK	644000
hu5E3-IgG1 (antibody, V domains shown, human IgG1/kappa; also called humanized 5E3 IgG1; IHA variant) VH: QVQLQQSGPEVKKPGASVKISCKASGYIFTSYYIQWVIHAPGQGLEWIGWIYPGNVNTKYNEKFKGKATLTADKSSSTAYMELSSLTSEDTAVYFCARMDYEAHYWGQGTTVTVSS VL: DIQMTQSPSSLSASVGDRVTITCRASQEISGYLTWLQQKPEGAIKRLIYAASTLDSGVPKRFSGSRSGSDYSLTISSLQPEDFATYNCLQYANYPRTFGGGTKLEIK	1.78e+06

# next binder below
Query: Item rehu5E3-IgG4 (antibody, V domains shown, human IgG4/kappa; also called IgG4 rehu version) VH: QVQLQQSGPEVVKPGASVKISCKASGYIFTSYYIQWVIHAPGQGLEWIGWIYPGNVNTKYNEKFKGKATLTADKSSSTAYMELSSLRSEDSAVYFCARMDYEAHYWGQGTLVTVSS VL: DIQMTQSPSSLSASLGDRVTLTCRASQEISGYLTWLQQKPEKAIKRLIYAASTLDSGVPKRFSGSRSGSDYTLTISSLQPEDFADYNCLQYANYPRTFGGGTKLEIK : provide kon
Response: 692000
